Overview of recorded pEC50 for various binders
Target: T1, EBOV VLP (Ebola virus (EBOV), UniProt Q05320 33-676)
T1 sequence: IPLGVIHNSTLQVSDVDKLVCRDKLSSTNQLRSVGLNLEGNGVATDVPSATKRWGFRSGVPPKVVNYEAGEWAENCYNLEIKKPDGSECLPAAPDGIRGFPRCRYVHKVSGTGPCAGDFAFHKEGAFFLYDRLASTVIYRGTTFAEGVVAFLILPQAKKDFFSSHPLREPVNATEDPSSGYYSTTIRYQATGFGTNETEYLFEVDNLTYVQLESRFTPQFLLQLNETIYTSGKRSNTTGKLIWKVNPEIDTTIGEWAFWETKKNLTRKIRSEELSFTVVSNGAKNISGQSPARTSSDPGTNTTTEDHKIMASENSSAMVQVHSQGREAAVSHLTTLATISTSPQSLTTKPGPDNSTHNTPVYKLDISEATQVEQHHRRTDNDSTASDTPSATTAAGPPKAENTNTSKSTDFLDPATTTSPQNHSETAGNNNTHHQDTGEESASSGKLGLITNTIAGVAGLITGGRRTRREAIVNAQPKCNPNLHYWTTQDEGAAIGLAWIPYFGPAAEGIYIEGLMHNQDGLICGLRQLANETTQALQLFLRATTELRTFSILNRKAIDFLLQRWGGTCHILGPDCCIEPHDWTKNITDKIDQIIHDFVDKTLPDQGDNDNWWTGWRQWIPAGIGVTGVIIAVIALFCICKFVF
Test: ELISA
pEC50: −log10 of the molar value.
value.kind: pEC50

>>> measured_value("FVM12 (antibody, V domains shown) VH: EVQLVQSGAEVKRPGESLTISCKTSEYSFTGSWISWVRQMPGKGLEWMGSIYPGDSDTRYSPSFQGQVTISADKSVTTTYLKWSSLKASDTATYYCVKGSETWGQGVLVTVSS VL: QPVLTQPASLSASLGASASLTCTFSGGINVAGYNILWYQQKPGSPPRFLLRYKSDSDNVQGSGVPSHFSGSKDASTNTGILRISGLQSEDEADYYCAIGHSSGWVFGGGTRLTVL")
9.21
>>> measured_value("FVM08 (antibody, V domains shown) VH: EVQLVQSGAEVKRPGESLTISCKTSGYSFTDSWVAWVRQMPGKGLEWMGSIYPGDSDTRYNPSFEGQVTISADKSISTTYLQWSSLRASDTATYYCVKGADDWGQGVLVTVSS VL: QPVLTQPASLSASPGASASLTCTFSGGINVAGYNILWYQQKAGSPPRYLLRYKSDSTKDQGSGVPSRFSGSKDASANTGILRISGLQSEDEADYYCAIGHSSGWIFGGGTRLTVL")
9.71
